- System: CAL-148
- protocol text: normalised response (% of control), CellTox Green; higher = less cell death (100 = DMSO, 0 = benzethonium chloride kill control)
- experimental context: incubation time: 72 h
Consider the following molecules and their measured normalised response readings.
measure: normalised response (%)

> print(dat)
                                   molecule  readout.units  recorded.value
1  COCC1(CO)C(=O)C2CCN1CC2 (centres undefined) [Prima-1 Met] (10000 nM)              %            99.3
2  Oc1ccc2c(c1)CC[C@H](c1ccccc1)[C@@H]2c1ccc(OCCN2CCCC2)cc1 [Lasofoxifene] (100 nM)              %            62.9
3  CC(C)C[C@@H](C(=O)N[C@H](C(=O)OC1CCCC1)c1ccccc1)[C@H](O)C(=O)NO [Tosedostat] (100 nM)              %            81.6
4  Cc1cc(Nc2cc(CN3CCOCC3)c3nc(C)c(Cc4ccc(Cl)cc4F)n3n2)n[nH]1 [Gandotinib] (10000 nM)              %            69.7

From: the supplement of paper PMC4862054
